System: TK-10 renal
Assay: NCI-60 one-dose screen, 48 h
Conditions: 10 µM unless noted
The panel holds about 83,000 compounds, 20% with a hit somewhere; the sample as a whole holds those more often. The source made the active and inactive calls. Rule for the calls: active = growth percent below 10; inactive = the rest.
Outcome field: choose from active, inactive

>>> label_class("Cc1[nH]c(C(=O)Nc2ccc(C(=O)NCC3CCNCC3)cc2OC(C)C)c(Cl)c1Cl")
"inactive"
>>> label_class("N#Cc1c(-c2cccs2)cc(-c2cnccn2)nc1SCC(=O)N/N=C/c1ccccc1")
"active"

stdin: Could you kindly confirm the outcome this assay logged for `O=C(CSc1nc2ccccc2c(=O)n1CCc1ccccc1)Nc1ccc(S(=O)(=O)Nc2ccc(Cl)nn2)cc1` ?
stdout: inactive

stdin: Could you kindly confirm the outcome this assay logged for `C#Cc1cc(OC)c(C(=O)Nc2ccc(F)cc2C(=O)Nc2cccc(S(=O)(=O)C(F)(F)F)c2)cn1` ?
stdout: inactive

stdin: Could you kindly confirm the outcome this assay logged for `O=C(CSc1nnc(-c2ccc(Cl)cc2)n1-c1ccccc1)Nc1ccccc1Cl` ?
stdout: inactive
